Listing of recorded Binding Score by entry.
Biological target: MHC-II DRB1*03:01 (Homo sapiens, UniProt P01903+P01911, A100K/A102G/A103R/A169T/F55Y/I96L/K41T/L162R/M171V/P40S/Q125H/Q178H/Q39Y/R42S/S66N/T106N/T262R/W38E/Y61H)
Sequence (P01903 26-254 limits assumed, other chains not shown): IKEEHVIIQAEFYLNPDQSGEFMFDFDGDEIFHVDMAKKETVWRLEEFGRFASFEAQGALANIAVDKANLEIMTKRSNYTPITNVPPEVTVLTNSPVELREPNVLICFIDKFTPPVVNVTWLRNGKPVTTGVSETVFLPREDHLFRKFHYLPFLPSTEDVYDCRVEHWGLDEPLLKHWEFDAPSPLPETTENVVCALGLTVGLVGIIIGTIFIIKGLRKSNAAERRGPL
Experiment: Cell-free REVEAL class II binding assay
Conditions: signal of test peptide as percentage of allele-specific positive control peptide, fluorescence, conformation-specific monoclonal antibody
parameter_measured: Binding Score (%)

| input_sequence | value_observed |
| --- | --- |
| TKSDPRCLTRYYSSF [synthetic wild type FVIII 15 mer peptide] | 12.6 |
| SLHAVGVSYWKASEG [synthetic wild type FVIII 15 mer peptide] | 1.3 |
| LQVDFQKTMKVTGVT [synthetic wild type FVIII 15 mer peptide, region of ns-SNP M2238V] | 30.7 |
| DGAYAPVLQDFRSLN [synthetic wild type FVIII 15 mer peptide, region of ns-SNP D1241E] | 11.1 |

----------
Target: MHC-II DRB1*11:01 (Homo sapiens, UniProt P01903+P01911, A100R/A169T/A87E/I96F/K41T/L162R/M171V/P40S/Q125H/Q178H/Q39Y/Q99D/R42S/S66Y/T262R/V115G/W38E)
Sequence (P01903 26-254 limits assumed, other chains not shown): as above
Test: Cell-free REVEAL class II stability assay
Settings: half-life of peptide-MHC-II complex (h, capped at 120) x Binding Score / 100, conformational ELISA
Flag rule - Stability Index less than 1 flags label 1; the remaining entries get label 0.

| input_sequence | answer_label |
| --- | --- |
| PIIARYIRLHPTHYS [synthetic wild type FVIII 15 mer peptide] | label 0 |
| SGYTFKHKMVYEDTL [synthetic wild type FVIII 15 mer peptide] | label 0 |
| YPHGITDVRPLYSRR [synthetic wild type FVIII 15 mer peptide, region of ns-SNP R484H] | label 0 |
| LFLLSTRQNVEGSYD [synthetic wild type FVIII 15 mer peptide, region of ns-SNP D1241E] | label 0 |
| RSNAWRPQVNNPKEW [synthetic wild type FVIII 15 mer peptide] | label 1 |
| RIHPQSWVHQIALRM [synthetic wild type FVIII 15 mer peptide] | label 0 |
| TRYLRIHPQSWVHQI [synthetic wild type FVIII 15 mer peptide] | label 0 |
| YSLDGKKWQTYRGNS [synthetic wild type FVIII 15 mer peptide] | label 0 |
| SYWKASEGAEYDDQT [synthetic wild type FVIII 15 mer peptide] | label 1 |
| SDPRCLTRYYSSFVN [synthetic wild type FVIII 15 mer peptide] | label 1 |
| PWFAHRTPMPKIQNV [synthetic wild type FVIII 15 mer peptide, region of ns-SNP R776G] | label 1 |
| LQVDFQKTMKVTGVT [synthetic wild type FVIII 15 mer peptide, region of ns-SNP M2238V] | label 0 |
| YIRLHPTHYSIRSTL [synthetic wild type FVIII 15 mer peptide] | label 0 |
| YNIYPHGITDVRPLY [synthetic wild type FVIII 15 mer peptide, region of ns-SNP R484H] | label 0 |
| AWRPQVNNPKEWLQV [synthetic wild type FVIII 15 mer peptide] | label 1 |
| IIMYSLDGKKWQTYR [synthetic wild type FVIII 15 mer peptide] | label 0 |
| GITDVRPLYSRRLPK [synthetic wild type FVIII 15 mer peptide, region of ns-SNP R484H] | label 1 |
| LSTRQNVEGSYDGAY [synthetic wild type FVIII 15 mer peptide, region of ns-SNP D1241E] | label 1 |
| NPPIIARYIRLHPTH [synthetic wild type FVIII 15 mer peptide] | label 0 |
| KTDPWFAHRTPMPKI [synthetic wild type FVIII 15 mer peptide, region of ns-SNP R776G] | label 1 |
| PRCLTRYYSSFVNME [synthetic wild type FVIII 15 mer peptide] | label 0 |
| DVRPLYSRRLPKGVK [synthetic wild type FVIII 15 mer peptide, region of ns-SNP R484H] | label 0 |
| SYDGAYAPVLQDFRS [synthetic wild type FVIII 15 mer peptide, region of ns-SNP D1241E] | label 1 |
| RQNVEGSYDGAYAPV [synthetic wild type FVIII 15 mer peptide, region of ns-SNP D1241E] | label 1 |
| VVNSLDPPLLTRYLR [synthetic wild type FVIII 15 mer peptide] | label 1 |
| PLLTRYLRIHPQSWV [synthetic wild type FVIII 15 mer peptide] | label 0 |
| ASEGAEYDDQTSQRE [synthetic wild type FVIII 15 mer peptide] | label 1 |
| GPTKSDPRCLTRYYS [synthetic wild type FVIII 15 mer peptide] | label 1 |
| PENDIEKTDPWFAHR [synthetic wild type FVIII 15 mer peptide, region of ns-SNP R776G] | label 1 |
| NNPKEWLQVDFQKTM [synthetic wild type FVIII 15 mer peptide, region of ns-SNP M2238V] | label 1 |
| TKSDPRCLTRYYSSF [synthetic wild type FVIII 15 mer peptide] | label 1 |
| KMVYEDTLTLFPFSG [synthetic wild type FVIII 15 mer peptide] | label 1 |
| IFNPPIIARYIRLHP [synthetic wild type FVIII 15 mer peptide] | label 0 |

----------
Molecular target: MHC-II DRB1*15:03 (Homo sapiens, UniProt P01903+P01911, Y59H)
Construct: purchased ProImmune
Sequence (P01903 26-254, other chains not shown): as the sequence (P01903 26-254 limits assumed, other chains not shown) above
Experiment: Cell-free REVEAL class II stability assay
Conditions: half-life of peptide-MHC-II complex (h, capped at 120) x Binding Score / 100, conformational ELISA

| input_sequence | Stability Index |
| --- | --- |
| IFNPPIIARYIRLHP [synthetic wild type FVIII 15 mer peptide] | 4.5 |
| YISQFIIMYSLDGKK [synthetic wild type FVIII 15 mer peptide] | 1.7 |
| AHRTPMPKIQNVSSS [synthetic wild type FVIII 15 mer peptide, region of ns-SNP R776G] | 0.1 |
| SYDGAYAPVLQDFRS [synthetic wild type FVIII 15 mer peptide, region of ns-SNP D1241E] | 0.0 |

----------
Molecular target: MHC-II DRB1*04:01 (Homo sapiens, UniProt P01903+P01911, A100K/A169T/F76Y/I96L/K127E/L162R/M171V/N62H/P40V/Q125Y/R42H/S133A/S149N/S66Y/V115G/V209L/W38E)
Experiment: Cell-free REVEAL class II stability assay
Settings: half-life of peptide-MHC-II complex (h, capped at 120) x Binding Score / 100, conformational ELISA
Heads up, the class ranges for Stability Index are group 1 = under 0.2, group 2 = from 0.2 up to 0.9, group 3 = 0.9 and over

| input_sequence | answer_label |
| --- | --- |
| VVNSLDPPLLTRYLR [synthetic wild type FVIII 15 mer peptide] | group 1 |
| KMVYEDTLTLFPFSG [synthetic wild type FVIII 15 mer peptide] | group 3 |
| SQFIIMYSLDGKKWQ [synthetic wild type FVIII 15 mer peptide] | group 3 |
| TKSDPRCLTRYYSSF [synthetic wild type FVIII 15 mer peptide] | group 1 |
| MKVTGVTTQGVKSLL [synthetic wild type FVIII 15 mer peptide, region of ns-SNP M2238V] | group 2 |
| LSTRQNVEGSYDGAY [synthetic wild type FVIII 15 mer peptide, region of ns-SNP D1241E] | group 3 |
| LFLLSTRQNVEGSYD [synthetic wild type FVIII 15 mer peptide, region of ns-SNP D1241E] | group 3 |
| AVGVSYWKASEGAEY [synthetic wild type FVIII 15 mer peptide] | group 2 |
| HKMVYEDTLTLFPFS [synthetic wild type FVIII 15 mer peptide] | group 3 |
| FSSLYISQFIIMYSL [synthetic wild type FVIII 15 mer peptide] | group 2 |
| SYDGAYAPVLQDFRS [synthetic wild type FVIII 15 mer peptide, region of ns-SNP D1241E] | group 1 |
| IFNPPIIARYIRLHP [synthetic wild type FVIII 15 mer peptide] | group 1 |
| QKTMKVTGVTTQGVK [synthetic wild type FVIII 15 mer peptide, region of ns-SNP M2238V] | group 2 |
| SGYTFKHKMVYEDTL [synthetic wild type FVIII 15 mer peptide] | group 1 |

----------
Molecular target: MHC-II DRB1*04:01 (Homo sapiens, UniProt P01903+P01911, A100K/A169T/F76Y/I96L/K127E/L162R/M171V/N62H/P40V/Q125Y/R42H/S133A/S149N/S66Y/V115G/V209L/W38E)
Test: Cell-free REVEAL class II stability assay
Conditions: half-life of peptide-MHC-II complex (h, capped at 120) x Binding Score / 100, conformational ELISA
Stability Index below 0.7 gives class 0; Stability Index at or above it gives class 1.

| input_sequence | answer_label |
| --- | --- |
| PLLTRYLRIHPQSWV [synthetic wild type FVIII 15 mer peptide] | class 1 |
| YPHGITDVRPLYSRR [synthetic wild type FVIII 15 mer peptide, region of ns-SNP R484H] | class 0 |
| NNPKEWLQVDFQKTM [synthetic wild type FVIII 15 mer peptide, region of ns-SNP M2238V] | class 0 |
| NPPIIARYIRLHPTH [synthetic wild type FVIII 15 mer peptide] | class 1 |
| YSLDGKKWQTYRGNS [synthetic wild type FVIII 15 mer peptide] | class 0 |
| SDPRCLTRYYSSFVN [synthetic wild type FVIII 15 mer peptide] | class 0 |
| PPLLTRYLRIHPQSW [synthetic wild type FVIII 15 mer peptide] | class 1 |
| TLTLFPFSGETVFMS [synthetic wild type FVIII 15 mer peptide] | class 0 |
